- MEASURED_TARGET: RXRα:RAR heterodimer (Homo sapiens, UniProt P19793)
- Construct: expressed in transfected cells; host or cells: CV-1 cells
- Sequence (P19793 whole entry, one chain of several): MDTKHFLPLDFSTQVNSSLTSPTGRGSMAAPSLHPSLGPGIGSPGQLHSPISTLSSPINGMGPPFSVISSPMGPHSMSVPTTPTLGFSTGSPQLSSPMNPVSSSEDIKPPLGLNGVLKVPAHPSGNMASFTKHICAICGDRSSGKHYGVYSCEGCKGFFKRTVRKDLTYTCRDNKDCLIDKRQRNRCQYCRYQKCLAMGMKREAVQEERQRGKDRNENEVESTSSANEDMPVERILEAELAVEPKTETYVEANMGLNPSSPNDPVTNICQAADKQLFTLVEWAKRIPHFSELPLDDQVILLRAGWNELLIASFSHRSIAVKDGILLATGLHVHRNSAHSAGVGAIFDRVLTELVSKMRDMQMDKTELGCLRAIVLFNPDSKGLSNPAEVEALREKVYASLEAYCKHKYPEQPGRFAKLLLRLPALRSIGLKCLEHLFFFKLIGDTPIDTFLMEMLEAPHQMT
- MEASUREMENT_DESCRIPTION: RXR:RAR heterodimer cotransfection assay in CV-1 cells
- Assay type: cell-based
- CONDITION_CONTEXT: relative to maximal repression (100%) in presence of 10 nM TTNPB
ASSAY_ENDPOINT: Antagonist Efficacy (%)

CCCOc1c(\C(C)=C/C=C/C(C)=C/C(=O)O)cc(C(C)C)nc1C(C)C	88
C/C(=C/C=C/C(C)=C/C(=O)O)c1cc(C(C)C)nc(C(C)C)c1OCC(F)F	76
C/C(=C/C=C/C(C)=C/C(=O)O)c1cc(C(C)C)nc(C(C)C)c1OCC(F)(F)F	85
CCCCOc1c(\C(C)=C/C=C/C(C)=C/C(=O)O)cc(C(C)C)nc1C(C)C	93
